ASSAY METHOD TEXT: Cytotoxicity against human glomerular mesangial cells incubated for 12 hrs by MTT assay
Format: cell-based
CONDITION PARAMETERS: Glomerular mesangial cell
Where a SMILES comes first, the peptide text is derived from it.
Give measured pIC50 for each item. Keep answers brief.
One number for each entry, as −log10 of the molar value.

{"columns": ["COMPOUND", "EXPERIMENTAL READOUT", "TEST RESULT"],
 "data": [
  ["CC[C@H](C)[C@H](NC(=O)[C@H](CCCNC(=N)N)NC(=O)[C@H](CCCCN)NC(=O)[C@H](Cc1ccccc1)NC(=O)[C@H](Cc1c[nH]c2ccccc12)NC(=O)[C@@H](N)CCCCN)C(=O)N[C@@H](CCCCN)C(=O)N[C@H](C(=O)N[C@@H](Cc1ccccc1)C(=O)N[C@@H](Cc1c[nH]c2ccccc12)C(N)=O)[C@@H](C)O (H-KWFKRIKTFW-NH2)", "pIC50", 4.10]
]}

// next entry
Request: Retrieve pIC50 measured for C[C@@H](O)[C@H](NC(=O)[C@H](CCCCN)NC(=O)[C@H](Cc1c[nH]c2ccccc12)NC(=O)[C@H](CCCNC(=N)N)NC(=O)[C@H](CCCCN)NC(=O)[C@H](Cc1ccccc1)NC(=O)[C@H](Cc1ccccc1)NC(=O)CN)C(=O)N[C@@H](Cc1ccccc1)C(=O)N[C@@H](Cc1ccccc1)C(N)=O (H-GFFKRWKTFF-NH2) and print it.
Response: 4.32

----------
Tested on: Pseudomonas aeruginosa
ASSAY METHOD TEXT: Antibacterial activity against Pseudomonas aeruginosa ATCC 27853 incubated for 18 hrs by CLSI based broth dilution method
Type: functional
Where a SMILES comes first, the peptide text is derived from it. Bridges are numbered along the chain shown (N, C = ends). [ ]: non-standard residue; d: D form. The star is where a group is joined. X1 = CC[C@H](C)CCCCC(=O)*; Dab = NCC[C@H](N)C(=O)O
EXPERIMENTAL READOUT: log10 MIC (log10 of the value in µM)
Heads up, the numbers here are log10 of MIC in µM units.

{"columns": ["MOLECULE", "log10 MIC"],
 "data": [
  ["CC(C)C[C@H](NC(=O)[C@H](Cc1ccccc1)NC(=O)CN)C(=O)N[C@@H](CCCCN)C(=O)N[C@@H](CCCNC(=N)N)C(=O)N[C@@H](Cc1ccccc1)C(=O)N[C@@H](CCCCN)C(=O)N[C@H](C(=O)N[C@@H](CC(C)C)C(=O)N[C@@H](Cc1ccccc1)C(N)=O)[C@@H](C)O (H-GFLKRFKTLF-NH2)", 1.81],
  ["CC(C)C[C@H](NC(=O)[C@H](CC(C)C)NC(=O)[C@@H](NC(=O)[C@H](CCCCN)NC(=O)[C@H](Cc1ccccc1)NC(=O)[C@H](CCCNC(=N)N)NC(=O)[C@H](CCCCN)NC(=O)[C@H](CC(C)C)NC(=O)[C@H](CC(C)C)NC(=O)CN)[C@@H](C)O)C(N)=O (H-GLLKRFKTLL-NH2)", 1.81],
  ["CC1(C)S[C@@H]2[C@H](NC(=O)Cc3ccccc3)C(=O)N2[C@H]1C(=O)O [PENICILLIN G]", 1.81],
  ["CC[C@H](C)CCCCC(=O)N[C@@H](CCN)C(=O)N[C@H](C(=O)N[C@@H](CCN)C(=O)N[C@H]1CCNC(=O)[C@H]([C@@H](C)O)NC(=O)[C@H](CCN)NC(=O)[C@H](CCN)NC(=O)[C@H](CC(C)C)NC(=O)[C@@H](Cc2ccccc2)NC(=O)[C@H](CCN)NC1=O)[C@@H](C)O (X1-[Dab]T[Dab][Dab][Dab][dF]L[Dab][Dab]T; lactam 4-C)", 0.60],
  ["CN[C@@H]1[C@H](O[C@H]2[C@H](O[C@H]3[C@H](O)[C@@H](O)[C@H](N=C(N)N)[C@@H](O)[C@@H]3N=C(N)N)O[C@@H](C)[C@]2(O)C=O)O[C@@H](CO)[C@H](O)[C@H]1O [STREPTOMYCIN]", 0.60],
  ["CC[C@H](C)[C@H](NC(=O)[C@H](CCCNC(=N)N)NC(=O)[C@H](CCCCN)NC(=O)[C@H](Cc1ccccc1)NC(=O)[C@H](Cc1c[nH]c2ccccc12)NC(=O)CN)C(=O)N[C@@H](CCCCN)C(=O)N[C@H](C(=O)N[C@@H](Cc1ccccc1)C(=O)N[C@@H](Cc1c[nH]c2ccccc12)C(N)=O)[C@@H](C)O (H-GWFKRIKTFW-NH2)", 1.20],
  ["CC[C@H](C)[C@H](NC(=O)[C@H](CCCNC(=N)N)NC(=O)[C@H](CCCCN)NC(=O)[C@H](Cc1ccccc1)NC(=O)[C@H](Cc1ccccc1)NC(=O)CN)C(=O)N[C@@H](CCCNC(=N)N)C(=O)N[C@H](C(=O)N[C@@H](Cc1ccccc1)C(=O)N[C@@H](Cc1ccccc1)C(N)=O)[C@@H](C)O (H-GFFKRIRTFF-NH2)", 1.51],
  ["CC[C@H](C)[C@H](NC(=O)[C@H](CCCNC(=N)N)NC(=O)[C@H](CCCCN)NC(=O)[C@H](Cc1ccccc1)NC(=O)[C@H](Cc1c[nH]c2ccccc12)NC(=O)[C@@H](N)CCCCN)C(=O)N[C@@H](CCCCN)C(=O)N[C@H](C(=O)N[C@@H](Cc1ccccc1)C(=O)N[C@@H](Cc1c[nH]c2ccccc12)C(N)=O)[C@@H](C)O (H-KWFKRIKTFW-NH2)", 1.20],
  ["C[C@@H](O)[C@H](NC(=O)[C@H](CCCCN)NC(=O)[C@H](Cc1c[nH]c2ccccc12)NC(=O)[C@H](CCCNC(=N)N)NC(=O)[C@H](CCCCN)NC(=O)[C@H](Cc1ccccc1)NC(=O)[C@H](Cc1ccccc1)NC(=O)CN)C(=O)N[C@@H](Cc1ccccc1)C(=O)N[C@@H](Cc1ccccc1)C(N)=O (H-GFFKRWKTFF-NH2)", 1.20],
  ["CO[C@H]1/C=C/O[C@@]2(C)Oc3c(C)c(O)c4c(O)c(c(/C=N/N5CCN(C)CC5)c(O)c4c3C2=O)NC(=O)/C(C)=C\\C=C\\[C@H](C)[C@H](O)[C@@H](C)[C@@H](O)[C@@H](C)[C@H](OC(C)=O)[C@@H]1C [RIFAMPIN]", 0.60]
]}

The record that follows has no log10 MIC shown yet.
Request: State its log10 MIC for this molecule: CC(C)C[C@H](NC(=O)CN)C(=O)N[C@@H](Cc1c[nH]c2ccccc12)C(=O)N[C@@H](CCCCN)C(=O)N[C@@H](CCCNC(=N)N)C(=O)N[C@@H](Cc1c[nH]c2ccccc12)C(=O)N[C@@H](CCCCN)C(=O)N[C@@H](CCCCN)C(=O)N[C@@H](Cc1ccccc1)C(=O)N[C@@H](Cc1c[nH]c2ccccc12)C(N)=O (H-GLWKRWKKFW-NH2)
Response: 0.90
